System: Influenza type B (cell culture adapted strain B/Lee/40, ATCC VR-1535)
Assay name: Influenza antiviral assay: inhibition of virus-induced cytopathic effects (CPE) in MDCK cells, XTT dye reduction
Type: cell-based
Assay setup: Influenza B virus, MDCK, 96 h, strain B/Lee/40, MDCK cells, CPE inhibition at 4 days

Compound	EC50
CN1CN(C23c4ccccc4CC2(C)Cc2c3ccc(F)c2F)n2ccc(=O)c(O)c2C1=O (stereo not shown)	< 125 nM
O=C1c2c(O)c(=O)ccn2N(C23c4cccc(F)c4CC2Cc2c(F)cccc23)CN1CC(F)F (stereo not shown)	< 125 nM
CC1N(C2CCC2)C(=O)c2c(O)c(=O)ccn2N1C12c3ccccc3CC1Cc1c(F)cccc12 (stereo not shown)	250 to 375 nM
CC1N(CC2CC2)C(=O)c2c(O)c(=O)ccn2N1C12c3ccccc3CC1Cc1c2ccc(F)c1F (stereo not shown)	125 to 250 nM
O=C1c2c(O)c(=O)ccn2N(C23c4ccccc4CC2Cc2c3ccc(F)c2F)CN1CCF (stereo not shown)	< 125 nM
O=C1c2c(O)c(=O)ccn2N(C23c4ccccc4CC2Cc2cc(F)c(F)cc23)CN1CCc1ccccc1 (stereo not shown)	< 125 nM
O=C1c2c(O)c(=O)ccn2N(C23c4cccc(F)c4CC2Cc2c(F)cccc23)CN1CCc1ccccc1 (stereo not shown)	< 125 nM

----------
Test system: Influenza type B (cell culture adapted strain B/Lee/40, ATCC VR-1535)
Assay name: Influenza antiviral assay: inhibition of virus-induced cytopathic effects (CPE) in MDCK cells, XTT dye reduction
Assay type: cell-based
Assay setup: Influenza B virus, MDCK, 96 h, strain B/Lee/40, MDCK cells, CPE inhibition at 4 days
pEC50: −log10 of the molar value.
Measure: pEC50

Compound	Value observed
CCN1CN(C23c4ccccc4CC2Cc2c3ccc(C)c2F)n2ccc(=O)c(O)c2C1=O (stereo not shown)	> 6.90
O=C1c2c(O)c(=O)ccn2N(C23c4ccccc4CC2Cc2cc(F)c(F)cc23)CN1CC1CCOCC1 (stereo not shown)	> 6.90
O=C1c2c(O)c(=O)ccn2N(C23c4ccccc4CC2Cc2ccccc23)CN1Cc1cccc(Cl)c1F (stereo not shown)	6.30 to 6.43
CCN1CN(C23c4ccccc4CC2Cc2cc(F)c(F)cc23)n2ccc(=O)c(O)c2C1=O (stereo not shown)	< 6.30
O=C1c2c(O)c(=O)ccn2N(C23c4ccccc4CC2Cc2c(F)cccc23)CN1CCCF (stereo not shown)	> 6.90
CN1CN(C23c4ccccc4CC2Cc2c3ccc(Cl)c2F)n2ccc(=O)c(O)c2C1=O (stereo not shown)	> 6.90
CC(C)CN1CN(C23c4cccc(F)c4CC2Cc2c(F)cccc23)n2ccc(=O)c(O)c2C1=O (stereo not shown)	6.60 to 6.90
O=C1c2c(O)c(=O)ccn2N(C23c4cccc(F)c4CC2Cc2c(F)cccc23)CN1CC1CC1 (stereo not shown)	> 6.90
CN1C(=O)c2c(O)c(=O)ccn2N(C23C(=Cc4c(F)cccc42)Cc2c(F)cccc23)C1CN (stereo not shown)	> 6.90
COCCN1CN(C23c4ccccc4CC2Cc2c(Cl)cccc23)n2ccc(=O)c(O)c2C1=O (stereo not shown)	> 6.90
CC1N(CC2CC2)C(=O)c2c(O)c(=O)ccn2N1C12c3ccccc3CC1Cc1c(Cl)cccc12 (stereo not shown)	6.43 to 6.60
COCCN1CN(C23c4ccccc4CC2Cc2c(F)cccc23)n2ccc(=O)c(O)c2C1=O (stereo not shown)	> 6.90
CN1CN(C23c4ccccc4CC2Cc2cccc(F)c23)n2ccc(=O)c(O)c2C1=O (stereo not shown)	> 6.90
O=C1c2c(O)c(=O)ccn2N(C23c4ccccc4CC2Cc2c(Cl)cccc23)CN1C1CC1 (stereo not shown)	6.60 to 6.90
O=C1c2c(O)c(=O)ccn2N(C23c4ccccc4CC2Cc2c(Cl)cccc23)CN1CC1CCC1 (stereo not shown)	6.43 to 6.60
CN1CN(C23c4cccc(F)c4CC2(C)Cc2c(F)cccc23)n2ccc(=O)c(O)c2C1=O (stereo not shown)	> 6.90
CCN1CN(C23c4ccccc4CC2(C)Cc2cc(F)ccc23)n2ccc(=O)c(O)c2C1=O (stereo not shown)	> 6.90
O=C1c2c(O)c(=O)ccn2N(C23c4cccc(F)c4CC2Cc2c(F)cccc23)CN1CC1CCCCO1 (stereo not shown)	6.60 to 6.90
O=C1c2c(O)c(=O)ccn2N(C23c4ccccc4CC2Cc2ccccc23)CN1Cc1ccccc1 (stereo not shown)	< 6.30
CCN1CN(C23c4ccccc4CC2(C)Cc2c3ccc(F)c2F)n2ccc(=O)c(O)c2C1=O (stereo not shown)	> 6.90
O=C1c2c(O)c(=O)ccn2N(C23c4cccc(F)c4CC2Cc2c(F)cccc23)CN1CC1CCOCC1 (stereo not shown)	6.60 to 6.90
O=C1c2c(O)c(=O)ccn2N(C23c4ccccc4CC2Cc2c(Cl)cccc23)CN1C1CCC1 (stereo not shown)	6.60 to 6.90
